System: SK-MEL-5 melanoma
Test: NCI-60 one-dose screen, 48 h (100 = growth as untreated, 0 = no growth, -100 = all killed)
Settings: 10 µM unless noted
Experimental: Growth inhibition of the SK-MEL-5 human tumor cell line is measured as a screen for anti-cancer activity. Cells are grown in 96 well plates and exposed to the test compound for 48 hours. Compounds are tested at a single concentration, which is 10^-5 M for most compounds. The reported endpoint is percent growth (GI% or GIPRCNT), where numbers from 0 - 100% represent growth inhibition, and numbers from -100% - 0 represent cell death. For example, a value of 40 represents 60% growth inhibition. […]
About 83,000 compounds went through this panel and 20% of them were active in at least one assay; those are over-represented in the sample as a whole.
MEASURE NAME: growth (%)
Respond numerically; units are % and should not be typed.

Give its growth value. Item: `Cc1ccc2nc(C[n+]3ccc4ccccc4c3)ccc2c1`
-31.1

Give its growth value. Item: `CCCCCC(CCCCC)C(=O)O`
117

Give its growth value. Item: COC(=O)[C@@]12OC[C@]34[C@H]([C@@H](O)[C@@H]1O)[C@@]1(C)[C@H](O)C(=O)C=C(C)[C@@H]1C[C@H]3OC(=O)C(OC(C)=O)[C@@H]24 (stereo not given in full)
-76.9

Give its growth value. Item: CN1c2ccccc2C(C)(C)C12C=Cc1cc(O)ccc1O2 (stereo not given)
43.2

Give its growth value. Item: `CN(C)c1ccc(/C=N/N=C(\C#N)[S][Sn]([Cl])([c]2ccccc2)[c]2ccccc2)cc1`
37

---
Give its growth value. Item: `CCCCCCCCCCCCCCNCc1ccccc1`
62.4

Give its growth value. Item: O=C(CC1(O)C(=O)Nc2c(Cl)ccc(Cl)c21)c1ccc(Cl)cc1Cl (stereo not given)
100

Give its growth value. Item: `Oc1c(Br)c(Br)c(O)c(Br)c1Br`
102

Give its growth value. Item: `CNc1ccc2c(c1)c1ccccc1n2C`
101

Give its growth value. Item: `COc1ccc(N=N/N=c2\sc3cc(OC)ccc3n2C)cc1`
84.6
